Exercise: state measured pIC50 for each of the molecules provided.
# Test system: MOLM14 cells
# assay-explanation: Proliferation assay, spheroid-like growth, MOLM14 (MLL-AF9 rearranged)
# Type: cell-based, human
# run-parameters: Homo sapiens, MOLM-14, 192 h, 8 days, confluence as measure of spheroid size, read-out: spheroid assay_OneTime MOLM14 IC50
FYI, pIC50 means -log10 of a concentration in mol per litre.

pIC50 recorded for this molecule, CC(C)[C@@H]([C@H]1C[C@@H](N2CCC(S(C)(=O)=O)CC2)C1)N1CC2(CCN(c3ncnnc3Oc3ccc(F)cc3-c3cccnc3C3CC3)C2)C1 (single isomer, unassigned) , is 8.05

// pIC50 lookup, molecule = CC(C)[C@H]([C@H]1C[C@H](N2CC[C@@H](C(C)(C)O)C2)C1)N1CC2(CCN(c3ncnnc3Oc3ccc(F)cc3-c3cncnc3C3CC3)C2)C1 (single isomer, unassigned) , result: 7.22

Value of pIC50 reported for the molecule CC(C)[C@H]([C@H]1C[C@@H](NC(=O)C2(F)CC2)C1)N1CC2(CCN(c3ncnnc3Oc3ccc(F)cc3-c3cncnc3C3CC3)C2)C1 (single isomer, unassigned) is 7.48

Reported pIC50 of CC(C)[C@@H]([C@H]1C[C@@H](N2C[C@H]3COC[C@H]3C2)C1)N1CC2(CCN(c3ncnnc3Oc3ccc(F)cc3-c3cnncc3C3CC3)C2)C1 (single isomer, unassigned) : 8.70

The value of pIC50 measured for the molecule CNC(=O)c1cnc(N[C@H]2C[C@@H]([C@H](C)N3CC4(CCN(c5ncnnc5Oc5ccc(F)cc5-c5cncnc5C5CC5)C4)C3)C2)s1 (single isomer, unassigned) turned out to be 7.62

Note to self: pIC50 recorded for CC(=O)N1CCN([C@H]2C[C@H]([C@@H](C(C)C)N3CC4(CCN(c5ncnnc5Oc5ccc(F)cc5-c5cncnc5C5CC5)C4)C3)C2)CC1 (single isomer, unassigned) was 6.47

The recorded pIC50 for entry Cc1nnc(-c2cc(N[C@H]3C[C@@H]([C@@H](C(C)C)N4CC5(CCN(c6ncnnc6Oc6ccc(F)cc6-c6cncnc6C6CC6)C5)C4)C3)ccn2)[nH]1 (single isomer, unassigned) equals 8.47

Briefly, pIC50 measured for CC(C)[C@H](C1CCN(C[C@H]2C[C@@](C)(O)C2)CC1)N1CC2(CCN(c3ncnnc3Oc3ccc(F)cc3-c3cccnc3C3CC3)C2)C1 (single isomer, unassigned) : 7.70
